system-name: Y1 receptor (Mus musculus, UniProt Q04573)
Sequence (Q04573 1-382): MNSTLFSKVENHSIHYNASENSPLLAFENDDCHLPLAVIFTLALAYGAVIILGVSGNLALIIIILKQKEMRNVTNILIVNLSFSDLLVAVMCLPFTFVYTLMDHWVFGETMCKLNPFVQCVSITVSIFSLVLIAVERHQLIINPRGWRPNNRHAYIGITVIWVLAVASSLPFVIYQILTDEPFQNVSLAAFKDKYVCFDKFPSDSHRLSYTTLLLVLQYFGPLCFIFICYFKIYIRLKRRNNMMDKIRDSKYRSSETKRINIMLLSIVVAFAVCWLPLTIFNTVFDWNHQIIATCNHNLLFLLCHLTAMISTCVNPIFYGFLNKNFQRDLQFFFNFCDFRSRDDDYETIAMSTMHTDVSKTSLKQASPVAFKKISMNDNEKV
measured-property: IC50 (nM)
Record the value in nM, omitting the unit from your answer.

Qu. Field request: IC50 | item: NC(=O)NCc1ccc(CNC(=O)[C@@H](CCCN=C(N)N)NC(=O)C(c2ccccc2)c2ccccc2)cc1 [BIBO3304]
Ans. 7.85

Source listed as paper PMC4363128.
